Value source: patent US20130273029A1

Each entry below carries its reported BT-474 pAkt (S473) IC50.
Test system: Human HER3, endogenous, on human cancer cell lines (SK-Br-3, MCF7, BT-474) (human, UniProt P21860 20-1342)
Sequence (P21860 20-1342): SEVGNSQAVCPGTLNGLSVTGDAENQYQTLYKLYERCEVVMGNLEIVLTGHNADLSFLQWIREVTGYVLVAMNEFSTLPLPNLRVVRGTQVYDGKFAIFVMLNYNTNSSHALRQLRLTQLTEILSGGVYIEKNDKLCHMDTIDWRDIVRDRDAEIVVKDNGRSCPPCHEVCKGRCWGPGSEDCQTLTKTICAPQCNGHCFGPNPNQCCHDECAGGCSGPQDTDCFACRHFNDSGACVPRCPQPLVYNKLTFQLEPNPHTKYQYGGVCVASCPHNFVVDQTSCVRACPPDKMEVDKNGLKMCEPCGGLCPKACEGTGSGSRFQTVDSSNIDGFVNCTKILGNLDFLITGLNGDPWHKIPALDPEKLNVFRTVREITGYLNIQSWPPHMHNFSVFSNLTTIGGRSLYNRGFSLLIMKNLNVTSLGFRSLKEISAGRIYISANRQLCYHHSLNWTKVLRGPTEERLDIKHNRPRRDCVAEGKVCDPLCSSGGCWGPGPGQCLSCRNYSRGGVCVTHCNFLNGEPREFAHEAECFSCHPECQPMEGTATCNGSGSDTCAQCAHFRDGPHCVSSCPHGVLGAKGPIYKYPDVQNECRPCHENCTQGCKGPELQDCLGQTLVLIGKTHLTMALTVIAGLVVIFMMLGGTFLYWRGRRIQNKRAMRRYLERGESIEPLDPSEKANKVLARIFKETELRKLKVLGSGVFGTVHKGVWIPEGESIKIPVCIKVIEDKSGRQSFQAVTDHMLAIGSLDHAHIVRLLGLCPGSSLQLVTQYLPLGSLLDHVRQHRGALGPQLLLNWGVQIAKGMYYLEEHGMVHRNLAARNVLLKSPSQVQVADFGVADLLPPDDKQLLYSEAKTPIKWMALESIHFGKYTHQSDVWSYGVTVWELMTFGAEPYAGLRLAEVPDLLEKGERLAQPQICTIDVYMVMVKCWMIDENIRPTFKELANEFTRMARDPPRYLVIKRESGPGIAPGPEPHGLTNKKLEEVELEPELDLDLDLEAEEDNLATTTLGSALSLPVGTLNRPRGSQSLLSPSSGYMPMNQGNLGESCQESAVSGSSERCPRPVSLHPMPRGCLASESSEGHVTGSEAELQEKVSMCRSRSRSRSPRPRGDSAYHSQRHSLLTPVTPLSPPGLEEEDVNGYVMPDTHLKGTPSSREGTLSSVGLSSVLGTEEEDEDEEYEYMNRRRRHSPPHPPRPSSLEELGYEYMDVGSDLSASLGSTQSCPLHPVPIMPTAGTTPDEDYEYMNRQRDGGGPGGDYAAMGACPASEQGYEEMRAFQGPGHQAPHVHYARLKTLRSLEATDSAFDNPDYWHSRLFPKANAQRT
Assay text: cell-based or functional assay
Report the figure in pM without appending any unit label.

Recorded result, MOR13763 (antibody, human IgG1, kappa, V domains shown, tested as IgG) VH: QVQLVQSGAEVKKPGESLKISCKGSGYSFTSYWVAWVRQMPGKGLEWMGIIYPGQSDTIYSPSFQGQVTISADKSISTAYLQWSSLKASDTAMYYCARVHIIQPPSAWSYNAMDVWGQGTLVTVSS VL: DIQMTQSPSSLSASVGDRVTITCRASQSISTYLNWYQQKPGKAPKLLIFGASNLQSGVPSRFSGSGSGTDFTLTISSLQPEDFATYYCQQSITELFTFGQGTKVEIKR , BT-474 pAkt (S473) IC50: 378

Recorded result, MOR13756 (antibody, human IgG1, kappa, V domains shown, tested as IgG) VH: QVQLVQSGAEVKKPGESLKISCKGSGYSFTLTWVAWVRQMPGKGLEWMGIIYPGQSDTIYSPSFQGQVTISADKSISTAYLQWSSLKASDTAMYYCARVHIIQPPSAWSYNAMDVWGQGTLVTVSS VL: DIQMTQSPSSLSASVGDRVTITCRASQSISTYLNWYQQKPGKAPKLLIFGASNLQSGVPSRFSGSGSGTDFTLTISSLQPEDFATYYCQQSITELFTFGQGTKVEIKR , BT-474 pAkt (S473) IC50: 189

Further cases:
Recorded result, MOR13869 (antibody, human IgG1, kappa, V domains shown, tested as IgG) VH: QVQLVQSGAEVKKPGESLKISCKGSGYSFSNYWIAWVRQMPGKGLEWMGIIYPGGSDTIYSPSFQGQVTISADKSISTAYLQWSSLKASDTAMYYCARVHIIQPPSAWSYNAMDVWGQGTLVTVSS VL: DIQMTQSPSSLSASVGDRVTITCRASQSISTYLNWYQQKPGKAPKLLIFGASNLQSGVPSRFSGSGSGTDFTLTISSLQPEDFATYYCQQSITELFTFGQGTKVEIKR , BT-474 pAkt (S473) IC50: 3040

Recorded result, MOR13755 (antibody, human IgG1, kappa, V domains shown, tested as IgG) VH: QVQLVQSGAEVKKPGESLKISCKGSGYSFTTYWVAWVRQMPGKGLEWMGIIYPGQSDTIYSPSFQGQVTISADKSISTAYLQWSSLKASDTAMYYCARVHIIQPPSAWSYNAMDVWGQGTLVTVSS VL: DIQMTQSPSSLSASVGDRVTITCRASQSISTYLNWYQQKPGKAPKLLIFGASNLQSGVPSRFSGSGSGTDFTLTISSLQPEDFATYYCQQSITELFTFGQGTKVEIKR , BT-474 pAkt (S473) IC50: 645
